Tested on: CCRF-CEM
Assay: Cell cycle arrest in human CEM cells assessed as accumulation of cells at sub-G1 phase at 15 uM after 24 hrs by RNase A/propidium iodide staining-based flow cytometric analysis
Format: functional
Calls of active or inactive are those of the source. The rule behind the calls is not given here.
Measurement name: Activity

CO[C@H]1CC[C@@]2(C)[C@@H](CC[C@@H]3[C@@H]2CC[C@]2(C)[C@@H](C4=CC(=O)OC4)[C@@H](O)C[C@]32O)C1 ... Active
CO[C@H]1CC[C@@]2(C)[C@@H](CC[C@@H]3[C@@H]2CC[C@]2(C)[C@@H](C4=CC(=O)OC4)[C@@H](OC(C)=O)C[C@]32O)C1 ... Active
CO[C@H]1CC[C@@]2(C)[C@@H](CC[C@@H]3[C@@H]2CC[C@]2(C)[C@@H](C4=CC(=O)OC4)[C@@H](OC(C)=O)[C@@H]4O[C@@]342)C1 ... Active
CO[C@H]1CC[C@@]2(C)[C@@H](CC[C@@H]3[C@@H]2CC[C@]2(C)[C@@H](C4=CC(=O)OC4)[C@@H](OC(C)=O)[C@H]4O[C@]342)C1 ... Active
